Test system: 521955-158-R2-J5-PDC complex spheroids, viability;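 note: compound exposure lasted seven days before the viability read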
test summary: Anticancer human tumor 521955-158-R2-J5-PDC patient-derived pancreatic carcinoma cell line growth inhibition [RAS]
measurement setup: curve of first compound; second compound 0.3 µM
pIC50: −log10 of the molar value.
assay endpoint: pIC50

Completed entries (count: 7):
compound | pIC50
C=CC(=O)N1CCN(c2nc(OCC3CCCN3C)nc3c(F)c(-c4nc(N)cc(C)c4C(F)(F)F)c(Cl)cc23)C(C)C1 (stereo not drawn) + CCn1c(-c2cc(N3CCN(C)CC3)cnc2C(C)OC)c2c3cc(ccc31)-c1csc(n1)CC(NC(=O)C1CC1C)C(=O)N1CCCC(N1)C(=O)OCC(C)(C)C2 | > 8.50
C=CC(=O)N1CCN(c2nc(OCC3CCCN3C)nc3c(F)c(-c4nc(N)cc(C)c4C(F)(F)F)c(Cl)cc23)C(C)C1 (stereo not drawn) + CCn1c(-c2cccnc2C(C)OC)c2c3cc(ccc31)N1CCOC(CC(NC(=O)C(C(C)C)N(C)C(=O)C3(F)CCN(C(=O)C#CC(C)(C)N(C)C)CC3)C(=O)N3CCCC(N3)C(=O)OCC(C)(C)C2)C1 | < 6.00
CC1(O)CCCC1n1c(=O)c(C(F)F)cc2cnc(NC3CCN(S(C)(=O)=O)CC3)nc21 (stereo not drawn) + CCn1c(-c2cccnc2C(C)OC)c2c3cc(ccc31)N1CCOC(CC(NC(=O)C(C(C)C)N(C)C(=O)C3(F)CCN(C(=O)C#CC(C)(C)N(C)C)CC3)C(=O)N3CCCC(N3)C(=O)OCC(C)(C)C2)C1 | 5.42
O=C(c1ccc(F)c(F)c1Nc1ccc(I)cc1F)N1CC(O)([C@@H]2CCCCN2)C1 + CCn1c(-c2cc(N3CCN(C)CC3)cnc2C(C)OC)c2c3cc(ccc31)-c1csc(n1)CC(NC(=O)C1CC1C)C(=O)N1CCCC(N1)C(=O)OCC(C)(C)C2 | > 8.50
NC1c2ccccc2OC12CCN(c1cnc3c(N4CCCc5ncccc54)n[nH]c3n1)CC2 (stereo not drawn) + CCn1c(-c2cccnc2C(C)OC)c2c3cc(ccc31)N1CCOC(CC(NC(=O)C(C(C)C)N(C)C(=O)C3(F)CCN(C(=O)C#CC(C)(C)N(C)C)CC3)C(=O)N3CCCC(N3)C(=O)OCC(C)(C)C2)C1 | 6.89
CC(=O)OC12COC1CC(O)C1(C)C(=O)C(O)C3=C(C)C(OC(=O)C(O)C(NC(=O)OC(C)(C)C)c4ccccc4)CC(O)(C(OC(=O)c4ccccc4)C21)C3(C)C (stereo not drawn) + CCn1c(-c2cc(N3CCN(C)CC3)cnc2C(C)OC)c2c3cc(ccc31)-c1csc(n1)CC(NC(=O)C1CC1C)C(=O)N1CCCC(N1)C(=O)OCC(C)(C)C2 | > 7.50
CC1(O)CCCC1n1c(=O)c(C(F)F)cc2cnc(NC3CCN(S(C)(=O)=O)CC3)nc21 (stereo not drawn) + CCn1c(-c2cc(N3CCN(C)CC3)cnc2C(C)OC)c2c3cc(ccc31)-c1csc(n1)CC(NC(=O)C1CC1C)C(=O)N1CCCC(N1)C(=O)OCC(C)(C)C2 | > 7.50

Please examine the following record next.
Query CC(Nc1ccc2c(c1)OCCn1cc(N3C(=O)OCC3C(F)F)nc1-2)C(N)=O (stereo not drawn) + CCn1c(-c2cccnc2C(C)OC)c2c3cc(ccc31)N1CCOC(CC(NC(=O)C(C(C)C)N(C)C(=O)C3(F)CCN(C(=O)C#CC(C)(C)N(C)C)CC3)C(=O)N3CCCC(N3)C(=O)OCC(C)(C)C2)C1 yields pIC50 of > 7.50
